Each recorded value in this set is attributed to ChEMBL document CHEMBL2439947.

tested on: Candida albicans; experiment: Antifungal activity against Candida albicans ATCC 10231 assessed as acetate level after 18 hrs by [1H] NMR spectroscopic analysis; type: functional

| compound | subject.of.test | measurement.units | Activity |
| --- | --- | --- | --- |
| COc1ccc(C(=O)O[C@@](Cn2cncn2)(c2ccc(F)cc2F)[C@@H](C)c2ncncc2F)cc1 [VORICONAZOLE P-METHOXY BENZOATE] | Candida albicans | µg/mL | 4 |
| C[C@@H](c1ncncc1F)[C@@](Cn1cncn1)(OC(=O)c1ccccc1)c1ccc(F)cc1F [VORICONAZOLE BENZOATE] | Candida albicans | µg/mL | 6 |
| C[C@@H](c1ncncc1F)[C@@](Cn1cncn1)(OC(=O)c1ccc([N+](=O)[O-])cc1)c1ccc(F)cc1F [VORICONAZOLE P-NITRO BENZOATE] | Candida albicans | µg/mL | 8 |
| C[C@@H](c1ncncc1F)[C@](O)(Cn1cncn1)c1ccc(F)cc1F [VORICONAZOLE] | Candida albicans | µg/mL | 3 |
| Cc1ccc(C(=O)O[C@@](Cn2cncn2)(c2ccc(F)cc2F)[C@@H](C)c2ncncc2F)cc1 [VORICONAZOLE TOLUATE] | Candida albicans | µg/mL | 6 |
